- System: yellow nutsedge (Cyperus esculentus)
- ASSAY: Preemergence herbicidal activity, yellow nutsedge
- Type: in vivo
- RUN_CONDITIONS: Pre, 2 lb/A
Listing of recorded % control, Nutsedge by entry.
READOUT: % control, Nutsedge

>>> print(df.to_string())
                                   molecule  obs_value
0  CC(Oc1ccc(Oc2ccc(C(F)(F)F)cc2Cl)cc1)C(=O)O (stereo not drawn) [Example 14]         0%
1  CC(Oc1ccc(Oc2ccc(C(F)(F)F)cc2Cl)cc1)C(=O)O (stereo not drawn) [Example 16]         0%
2  CC(Oc1ccc(Oc2ccc(C(F)(F)F)cc2Cl)cc1)C(=O)O (stereo not drawn) [Example 17]         0%
3  CC(Oc1ccc(Oc2ccc(C(F)(F)F)cc2Cl)cc1)C(=O)O (stereo not drawn) [Example 15]         0%
4  CC(Oc1ccc(Oc2ccc(C(F)(F)F)cc2Cl)cc1)C(=O)O (stereo not drawn) [Example 13]         0%
5  CC(Oc1ccc(Oc2ccc(C(F)(F)F)cc2Cl)cc1)C(=O)O (stereo not drawn) [Example 12]         0%

###

- Tested on: tomato (Lycopersicon esculentum)
- ASSAY: Postemergence herbicidal activity, tomato
- Type: in vivo
- RUN_CONDITIONS: Solanum lycopersicum, post-emergence, 336 h, Post, 2 lb/A
- Procedure: Using the procedure described below, compounds of the invention are evaluated for control of several of the following plant species: The following est procedure is employed. Seeds of selected crops and weeds are planted in soil in flats. […] The compound to be evaluated is dissolved in acetone, diluted with water, and sprayed over the flats using a carrier volume equivalent to 50 gallons per acre at the rate of application (pounds per acre, lb/A.) specified in the tables. […]
READOUT: pest or weed control at 2241.7 g/ha (%)

>>> print(df.to_string())
                                   compound                              readout  unit_info  obs_value
0  CCOC(=O)C(CC)Oc1ccc(Oc2ccc(C(F)(F)F)cc2Cl)cc1 (stereo not drawn)  pest or weed control at 2241.7 g/ha          %         30
1  CCOC(=O)C(C)Oc1ccc(Oc2ccc(C(F)(F)F)cc2Cl)cc1Cl (stereo not drawn)  pest or weed control at 2241.7 g/ha          %         80
2  CC(Oc1ccc(Oc2ccc(C(F)(F)F)cc2Cl)cc1)C(=O)OC(C)(C)C (stereo not drawn)  pest or weed control at 2241.7 g/ha          %          0
3  CCOC(=O)C(C)Oc1ccc(Sc2ccc(C(F)(F)F)cc2Cl)cc1 (stereo not drawn)  pest or weed control at 2241.7 g/ha          %         70
4  CCOC(=O)C(C)Oc1ccc(Oc2ccc(C(F)(F)F)cc2Cl)cc1OC (stereo not drawn)  pest or weed control at 2241.7 g/ha          %          0
5  CC(Oc1ccc(Oc2ccc(C(F)(F)F)cc2)cc1)C(N)=O (stereo not drawn)  pest or weed control at 2241.7 g/ha          %          0
6  CCOC(=O)CCC(C)Oc1ccc(Oc2ccc(C(F)(F)F)cc2)cc1 (stereo not drawn)  pest or weed control at 2241.7 g/ha          %         20
7  CCOC(=O)C(C)Oc1ccc(Sc2ccc(C(F)(F)F)cc2C#N)cc1 (stereo not drawn)  pest or weed control at 2241.7 g/ha          %          0
8  CC(C#N)Oc1ccc(Oc2ccc(C(F)(F)F)cc2Cl)cc1 (stereo not drawn)  pest or weed control at 2241.7 g/ha          %          0

###

- Tested on: tomato (Lycopersicon esculentum)
- ASSAY: Postemergence herbicidal activity, tomato
- Format: in vivo
- RUN_CONDITIONS: Solanum lycopersicum, post-emergence, 336 h, Post, 2 lb/A
Overview of recorded pest or weed control at 2241.7 g/ha for various compounds
READOUT: pest or weed control at 2241.7 g/ha (%)

In [3]: df
Out[3]:
                                   compound                              readout  obs_value
0  CCOC(=O)C(Oc1ccc(Oc2ccc(C(F)(F)F)cc2Cl)cc1)C(C)C (stereo not drawn)  pest or weed control at 2241.7 g/ha          0
1  CCN(CC)C(=O)C(C)Oc1ccc(Oc2ccc(C(F)(F)F)cc2Cl)cc1 (stereo not drawn)  pest or weed control at 2241.7 g/ha         80
2  CC(Oc1ccc(Oc2ccc(C(F)(F)F)cc2Cl)cc1)C(=O)OCCN(C)C (stereo not drawn)  pest or weed control at 2241.7 g/ha         90
3  CCOC(=O)C(C)Oc1ccc(Sc2ccc(C(F)(F)F)cc2[N+](=O)[O-])cc1 (stereo not drawn)  pest or weed control at 2241.7 g/ha          0
4  CC(C)COC(=O)C(C)Oc1ccc(Oc2ccc(C(F)(F)F)cc2Cl)cc1 (stereo not drawn)  pest or weed control at 2241.7 g/ha          0
5  CCCCCCOC(=O)C(C)Oc1ccc(Oc2ccc(C(F)(F)F)cc2Cl)cc1 (stereo not drawn)  pest or weed control at 2241.7 g/ha          0
6  CCOC(=O)C(C)Oc1ccc(Oc2ccc(C(F)(F)F)cc2)cc1 (stereo not drawn)  pest or weed control at 2241.7 g/ha         60
7  CCCCCCCCOC(=O)C(C)Oc1ccc(Oc2ccc(C(F)(F)F)cc2Cl)cc1 (stereo not drawn)  pest or weed control at 2241.7 g/ha         30
8  CCOC(=O)C(C)Oc1cccc(Oc2ccc(C(F)(F)F)cc2Cl)c1 (stereo not drawn)  pest or weed control at 2241.7 g/ha        100

###

- System: downybrome (Bromus tectorum)
- ASSAY: Preemergence herbicidal activity, downybrome
- Assay type: in vivo
- RUN_CONDITIONS: Bromus tectorum, pre-emergence, 336 h, Pre, 2 lb/A
READOUT: pest or weed control at 2241.7 g/ha (%)

                                    molecule  obs_value
 0  CCOC(=O)C(C)Oc1ccc(Sc2ccc(C(F)(F)F)cc2C#N)cc1 (stereo not drawn) [Example 47]         40
 1  CCOC(=O)C(C)Oc1ccc(Sc2ccc(C(F)(F)F)cc2[N+](=O)[O-])cc1 (stereo not drawn) [Example 48]         30
 2  CC(C)OC(=O)C(C)Oc1ccc(Oc2ccc(C(F)(F)F)cc2Cl)cc1 (stereo not drawn) [Example 22]         95
 3  CCOC(=O)C(C)Oc1ccc(Oc2ccc(C(F)(F)F)cc2)cc1 (stereo not drawn) [Example 27]         99
 4  CC(C#N)Oc1ccc(Oc2ccc(C(F)(F)F)cc2)cc1 (stereo not drawn) [Example 41]         80
 5  CCCCCCOC(=O)C(C)Oc1ccc(Oc2ccc(C(F)(F)F)cc2Cl)cc1 (stereo not drawn) [Example 36]          0
 6  CCOC(=O)CCC(C)Oc1ccc(Oc2ccc(C(F)(F)F)cc2Cl)cc1 (stereo not drawn) [Example 38]          0
 7  COCCOC(=O)C(C)Oc1ccc(Oc2ccc(C(F)(F)F)cc2Cl)cc1 (stereo not drawn) [Example 25]         95
 8  CCOC(=O)COc1ccc(Oc2ccc(C(F)(F)F)cc2Cl)cc1 [Example 11]          0
 9  CCOC(=O)C(C)Oc1ccc(Oc2ccc(C(F)(F)F)cc2Cl)cc1Cl (stereo not drawn) [Example 7]          0
10  CCCCOC(=O)C(C)Oc1ccc(Oc2ccc(C(F)(F)F)cc2Cl)cc1 (stereo not drawn) [Example 23]         99
11  CCCOC(=O)C(C)Oc1ccc(Oc2ccc(C(F)(F)F)cc2Cl)cc1 (stereo not drawn) [Example 32]         80
12  CCOC(=O)C(C)Oc1cccc(Oc2ccc(C(F)(F)F)cc2Cl)c1 (stereo not drawn) [Example 2]          0
13  CC(Oc1ccc(Oc2ccc(C(F)(F)F)cc2Cl)cc1)C(N)=O (stereo not drawn) [Example 18]         95
14  CCOC(=O)C(C)Oc1ccc(Oc2ccc(C(F)(F)F)cc2Cl)cc1[N+](=O)[O-] (stereo not drawn) [Example 9]          0
15  CCOC(=O)C(C)Oc1ccc(Sc2ccc(C(F)(F)F)cc2Cl)cc1 (stereo not drawn) [Example 3]         40
16  CC(Oc1ccc(Oc2ccc(C(F)(F)F)cc2)cc1)C(=O)O (stereo not drawn) [Example 29]         99
17  CCOC(=O)C(C)Oc1ccc(Oc2ccc(C(F)(F)F)cc2Cl)cc1C (stereo not drawn) [Example 10]          0
18  CCOC(=O)C=CCOc1ccc(Oc2ccc(C(F)(F)F)cc2Cl)cc1 [Example 30]          0
19  C=CCOC(=O)C(C)Oc1ccc(Oc2ccc(C(F)(F)F)cc2Cl)cc1 (stereo not drawn) [Example 24]         99
20  CC(Oc1ccc(Oc2ccc(C(F)(F)F)cc2)cc1)C(N)=O (stereo not drawn) [Example 40]         80
21  CCN(CC)C(=O)C(C)Oc1ccc(Oc2ccc(C(F)(F)F)cc2Cl)cc1 (stereo not drawn) [Example 5]          0
22  CCC(C)OC(=O)C(C)Oc1ccc(Oc2ccc(C(F)(F)F)cc2Cl)cc1 (stereo not drawn) [Example 34]         95
23  CCNC(=O)C(C)Oc1ccc(Oc2ccc(C(F)(F)F)cc2Cl)cc1 (stereo not drawn) [Example 21]         90
24  CCOC(=O)C(Oc1ccc(Oc2ccc(C(F)(F)F)cc2Cl)cc1)C(C)C (stereo not drawn) [Example 28]         30
25  CCOC(=O)C(C)Oc1ccc(Oc2ccc(C(F)(F)F)cc2Cl)cc1OC (stereo not drawn) [Example 8]          0
26  CC(Oc1ccc(Oc2ccc(C(F)(F)F)cc2Cl)cc1)C(=O)OC(C)(C)C (stereo not drawn) [Example 35]          0
27  CC(Oc1ccc(Oc2ccc(C(F)(F)F)cc2Cl)cc1)C(=O)OCCN(C)C (stereo not drawn) [Example 31]         30
28  CC(C)COC(=O)C(C)Oc1ccc(Oc2ccc(C(F)(F)F)cc2Cl)cc1 (stereo not drawn) [Example 33]         90
29  CC(C#N)Oc1ccc(Oc2ccc(C(F)(F)F)cc2Cl)cc1 (stereo not drawn) [Example 19]         20

# credit: patent US4335249A
